target: T1, serum purified human Complement Factor D (human, UniProt P00746 26-253); assay: SPR Biacore, antibody on protein A chip, single cycle kinetics, 37 C;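 further: antibodies captured on the protein A surface to roughly 70 RU in HBS-EP+ buffer, with rate and affinity constants fitted using BIAevaluation software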
T1 construct: Serum purified protein flowed over the captured antibodies; also called CFD; human CFD
T1 sequence (P00746 26-253): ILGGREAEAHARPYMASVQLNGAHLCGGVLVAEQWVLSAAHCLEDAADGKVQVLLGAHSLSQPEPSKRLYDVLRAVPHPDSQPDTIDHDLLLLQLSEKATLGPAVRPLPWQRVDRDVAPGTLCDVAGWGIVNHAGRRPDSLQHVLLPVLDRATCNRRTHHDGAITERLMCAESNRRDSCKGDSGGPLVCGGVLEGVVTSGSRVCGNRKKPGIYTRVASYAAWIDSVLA
We begin with a simple list: items and their reported koff.
Only the number, expressed in s⁻¹, is required.

{"Binder": "31S54I59D / 32W60W101V (antibody, V domains shown, KCD119 TAF variant; full antibody captured on protein A) VH: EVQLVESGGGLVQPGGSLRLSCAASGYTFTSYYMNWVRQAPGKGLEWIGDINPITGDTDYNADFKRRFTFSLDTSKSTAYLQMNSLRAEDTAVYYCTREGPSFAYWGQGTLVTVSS VL: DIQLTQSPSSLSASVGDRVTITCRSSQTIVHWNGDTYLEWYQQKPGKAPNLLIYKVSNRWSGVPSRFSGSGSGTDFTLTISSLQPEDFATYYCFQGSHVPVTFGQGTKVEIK", "koff / s⁻¹": 0.000225}

Read the entry 54V59D / 32D50I101V (antibody, V domains shown, KCD119 TAF variant; full antibody captured on protein A) VH: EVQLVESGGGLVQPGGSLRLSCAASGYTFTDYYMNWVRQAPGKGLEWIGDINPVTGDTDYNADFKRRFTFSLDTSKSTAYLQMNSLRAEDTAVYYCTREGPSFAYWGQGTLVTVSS VL: DIQLTQSPSSLSASVGDRVTITCRSSQTIVHDNGDTYLEWYQQKPGKAPILLIYKVSNRFSGVPSRFSGSGSGTDFTLTISSLQPEDFATYYCFQGSHVPVTFGQGTKVEIK and write its reported koff.
0.00041

Read the entry 28V31S54V59D / 101V (antibody, V domains shown, KCD119 TAF variant; full antibody captured on protein A) VH: EVQLVESGGGLVQPGGSLRLSCAASGYVFTSYYMNWVRQAPGKGLEWIGDINPVTGDTDYNADFKRRFTFSLDTSKSTAYLQMNSLRAEDTAVYYCTREGPSFAYWGQGTLVTVSS VL: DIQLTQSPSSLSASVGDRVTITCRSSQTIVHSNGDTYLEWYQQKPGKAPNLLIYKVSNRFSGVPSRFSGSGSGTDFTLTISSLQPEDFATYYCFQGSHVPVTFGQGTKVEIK and write its reported koff.
0.00085
